These entries and their values trace back to patent US20230303695A1.

Target: T1, recombinant human IGSF8 extracellular domain tagged by a human Fc region (IGSF8-hFc) (human, UniProt Q969P0 28-579, biotin label in Examples 17, 18 and 28 (site not given))
T1 construct: also called IGSF8-Fc fusion protein; IGSF8-hFc-biotin; not shown: human Fc region
T1 sequence: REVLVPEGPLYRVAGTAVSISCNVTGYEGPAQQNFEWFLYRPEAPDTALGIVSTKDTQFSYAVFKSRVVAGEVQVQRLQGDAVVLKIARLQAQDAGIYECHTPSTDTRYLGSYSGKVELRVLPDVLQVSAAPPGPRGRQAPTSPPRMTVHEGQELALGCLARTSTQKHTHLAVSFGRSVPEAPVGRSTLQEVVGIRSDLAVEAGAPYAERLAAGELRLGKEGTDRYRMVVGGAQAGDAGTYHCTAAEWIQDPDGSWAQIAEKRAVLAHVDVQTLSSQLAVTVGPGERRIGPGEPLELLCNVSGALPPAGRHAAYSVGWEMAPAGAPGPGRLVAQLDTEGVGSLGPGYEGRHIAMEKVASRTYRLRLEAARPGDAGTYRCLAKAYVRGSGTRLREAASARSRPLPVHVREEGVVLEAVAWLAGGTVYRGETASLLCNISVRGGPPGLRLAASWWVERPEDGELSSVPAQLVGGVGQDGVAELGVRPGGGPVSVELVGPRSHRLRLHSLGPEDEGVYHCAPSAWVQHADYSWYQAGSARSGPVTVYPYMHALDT
Experiment: SPR, Ab captured
Some binders, each annotated with its measured koff.

- binder: "L1-04 (antibody, V domains shown) VH: QVQLVESGGGVVQPGRSLRLSCAASGFTFSTYGMHWVRQAPGKGLEWVAVIWDDGSYKYYGDSVKGRFTISRDNSKNTLYLQMNSLRAEDTAVYYCARDGSGWGYAFDIWGQGTMVTVSS VL: DIQLTQSPSSLSASVGDRVTITCQASQDISEYLNWYQHKPGKAPNPLVFGSPNLETGVPPRFSATGSGTDFSLTITSLQPEDFATYYCQQYDSFPYTFGQGTRLDIK"
  koff / s⁻¹: 0.0022
- binder: "L1VH-D54T (antibody, V domains shown) VH: QVQLVESGGGVVQPGRSLRLSCAASGFTFSTYGMHWVRQAPGKGLEWVAVIWDTGSYKYYGDSVKGRFTISRDNSKNTLYLQMNSLRAEDTAVYYCARDGSGWGYAFDIWGQGTMVTVSS VL: DIQLTQSPSSLSASVGDRVTITCQASQDISEYLNWYQHKPGKAPNPLVFDAANLETGVPPRFSATGSGTDFSLTITSLQPEDFATYYCQQYDSFPYTFGQGTRLDIK"
  koff / s⁻¹: 0.00131
- binder: "L1-26 (antibody, V domains shown) VH: QVQLVESGGGVVQPGRSLRLSCAASGFTFSTYGMHWVRQAPGKGLEWVAVIWDDGSYKYYGDSVKGRFTISRDNSKNTLYLQMNSLRAEDTAVYYCARDGSGWGYAFDIWGQGTLVTVSS VL: DIQLTQSPSSLSASVGDRVTITCQASQDISPYLNWYQHKPGKAPKPLVFGSPNLETGVPSRFSASGSGTDFTLTISSLQPEDFATYYCQQYDSFPYTFGQGTKVEIK"
  koff / s⁻¹: 0.000497
- binder: "L1-24 (antibody, V domains shown) VH: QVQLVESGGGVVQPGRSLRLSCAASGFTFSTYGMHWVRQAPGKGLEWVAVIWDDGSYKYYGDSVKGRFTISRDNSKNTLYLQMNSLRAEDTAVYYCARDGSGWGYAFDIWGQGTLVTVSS VL: DIQLTQSPSSLSASVGDRVTITCQASQDIGPYLNWYQHKPGKAPKPLVFGSPNLETGVPSRFSASGSGTDFTLTISSLQPEDFATYYCQQYDSFPYTFGQGTKVEIK"
  koff / s⁻¹: "3.06e-06"
- binder: "L1-14 (antibody, V domains shown) VH: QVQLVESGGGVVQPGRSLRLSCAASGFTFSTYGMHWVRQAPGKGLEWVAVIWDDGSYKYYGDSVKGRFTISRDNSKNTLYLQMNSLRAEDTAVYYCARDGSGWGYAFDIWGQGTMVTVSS VL: DIQLTQSPSSLSASVGDRVTITCQASQDISEYLNWYQHKPGKAPNPLVFSQPNLETGVPPRFSATGSGTDFSLTITSLQPEDFATYYCQQYDSFPYTFGQGTRLDIK"
  koff / s⁻¹: 0.00244
- binder: "L1-12 (antibody, V domains shown) VH: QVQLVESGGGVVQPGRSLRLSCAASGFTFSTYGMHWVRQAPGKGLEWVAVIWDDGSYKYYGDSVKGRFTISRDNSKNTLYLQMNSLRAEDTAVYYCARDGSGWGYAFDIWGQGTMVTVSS VL: DIQLTQSPSSLSASVGDRVTITCQASQDISEYLNWYQHKPGKAPNPLVFGADNLETGVPPRFSATGSGTDFSLTITSLQPEDFATYYCQQYDSFPYTFGQGTRLDIK"
  koff / s⁻¹: 0.00142
- binder: "L1-27 (antibody, V domains shown) VH: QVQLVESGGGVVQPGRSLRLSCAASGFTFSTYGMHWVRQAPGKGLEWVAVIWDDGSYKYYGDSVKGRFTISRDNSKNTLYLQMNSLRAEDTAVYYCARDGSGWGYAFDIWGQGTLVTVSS VL: DIQLTQSPSSLSASVGDRVTITCQASQDISYNLNWYQHKPGKAPKPLVFGSPNLETGVPSRFSASGSGTDFTLTISSLQPEDFATYYCQQYDSFPYTFGQGTKVEIK"
  koff / s⁻¹: 0.000835
- binder: "L1-19 (antibody, V domains shown) VH: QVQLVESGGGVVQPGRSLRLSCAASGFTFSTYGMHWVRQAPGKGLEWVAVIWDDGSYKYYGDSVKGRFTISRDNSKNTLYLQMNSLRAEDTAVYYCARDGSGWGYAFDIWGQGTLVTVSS VL: DIQMTQSPSSLSASVGDRVTITCQASQDISPYLNWYQQKPGKAPKLLIYDAPNLETGVPSRFSGSGSGTDFTFTISSLQPEDIATYYCQQYDSFPYTFGQGTKVEIK"
  koff / s⁻¹: 0.000705
- binder: "L2-08 (antibody, V domains shown) VH: EVQLVESGGGLEQPGGSLRLSCAASGFTFRDYAMTWVRQAPGKGLEWVSSISGSGGSTYYADSVKGRFTISRDNSKNTLYLQMNSLRAEDTAIYYCARGEYSSGWPSWFDPWGQGTLVTVSS VL: DIQMTQSPSSLSASVGDRVTITCRASRTVGTFLNWYQQKPGKAPKALILGVSILEGGVPSRFSGSGSGTDFTLTISSLQPEDIATYYCQQSHDVPRTFGQGTKVEIK"
  koff / s⁻¹: 0.000112
- binder: "L1-10 (antibody, V domains shown) VH: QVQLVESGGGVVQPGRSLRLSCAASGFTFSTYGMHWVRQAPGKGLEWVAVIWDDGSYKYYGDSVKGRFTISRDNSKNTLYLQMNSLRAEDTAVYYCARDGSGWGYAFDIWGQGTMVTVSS VL: DIQLTQSPSSLSASVGDRVTITCQASQDISEYLNWYQHKPGKAPNPLVFTSANLETGVPPRFSATGSGTDFSLTITSLQPEDFATYYCQQYDSFPYTFGQGTRLDIK"
  koff / s⁻¹: 0.00196
